// provenance: ChEMBL document CHEMBL5523729

- experimental.target: Protein cereblon/Cyclin-dependent kinase 4 (Homo sapiens, UniProt P11802+Q96SW2)
- protocol.notes: PROTAC activity at CDK4/CRBN in human Jurkat cells assessed as protein degradation by Western blot analysis
- Assay type: cell-based
- Sequence (P11802 whole entry): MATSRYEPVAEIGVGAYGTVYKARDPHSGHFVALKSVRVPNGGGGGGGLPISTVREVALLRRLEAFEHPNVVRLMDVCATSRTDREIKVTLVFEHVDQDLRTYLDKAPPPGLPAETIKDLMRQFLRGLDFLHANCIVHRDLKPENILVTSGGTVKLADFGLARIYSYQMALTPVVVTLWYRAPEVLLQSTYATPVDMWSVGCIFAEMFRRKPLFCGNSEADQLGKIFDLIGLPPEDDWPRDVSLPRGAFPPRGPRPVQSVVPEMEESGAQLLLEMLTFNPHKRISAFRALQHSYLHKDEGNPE
- Sequence (Q96SW2 whole entry): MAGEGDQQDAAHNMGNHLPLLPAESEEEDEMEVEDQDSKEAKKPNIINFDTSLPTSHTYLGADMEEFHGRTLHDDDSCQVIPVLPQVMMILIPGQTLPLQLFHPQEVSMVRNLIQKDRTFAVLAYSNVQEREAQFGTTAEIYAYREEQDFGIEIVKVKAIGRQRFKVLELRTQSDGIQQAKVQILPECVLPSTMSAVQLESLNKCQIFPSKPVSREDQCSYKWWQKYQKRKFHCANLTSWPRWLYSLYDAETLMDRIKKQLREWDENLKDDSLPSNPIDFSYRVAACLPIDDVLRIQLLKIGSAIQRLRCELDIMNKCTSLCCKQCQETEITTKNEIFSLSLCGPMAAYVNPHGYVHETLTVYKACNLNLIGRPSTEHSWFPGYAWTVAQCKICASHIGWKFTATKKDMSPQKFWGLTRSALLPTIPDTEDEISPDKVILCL
measured.property: log10 of DC50 (log10 of the value in nM)

compound	log10 of DC50
O=C1CCC(N2C(=O)c3ccc(N4CCN(CC5CCN(C(=O)CN6CCN(c7ccc(Nc8ncc9ncc(=O)n(C%10CCCC%10)c9n8)cc7)CC6)CC5)CC4)cc3C2=O)C(=O)N1 (stereo not given)	2.14
O=C1CCC(N2C(=O)c3cccc(NCCOCCN4CCN(c5ccc(Nc6ncc7ncc(=O)n(C8CCCC8)c7n6)cc5)CC4)c3C2=O)C(=O)N1 (stereo not given)	2.21
O=C1CCC(N2C(=O)c3ccc(N4CCN(C(=O)CN5CCN(c6ccc(Nc7ncc8ncc(=O)n(C9CCCC9)c8n7)cc6)CC5)CC4)cc3C2=O)C(=O)N1 (stereo not given)	0.99
O=C(CCCCN1CCN(c2ccc(Nc3ncc4ncc(=O)n(C5CCCC5)c4n3)cc2)CC1)NCCNc1cccc2c1C(=O)N(C1CCC(=O)NC1=O)C2=O (stereo not given)	1.02
O=C1CCC(N2C(=O)c3cccc(NC(=O)CCCCCN4CCN(c5ccc(Nc6ncc7ncc(=O)n(C8CCCC8)c7n6)cc5)CC4)c3C2=O)C(=O)N1 (stereo not given)	1.17
O=C1CCC(N2C(=O)c3cccc(NCCOCCOCCN4CCN(c5ccc(Nc6ncc7ncc(=O)n(C8CCCC8)c7n6)cc5)CC4)c3C2=O)C(=O)N1 (stereo not given)	2.75
O=C1CCC(N2C(=O)c3cccc(NC(=O)CCCCCCC(=O)N4CCN(c5ccc(Nc6ncc7ncc(=O)n(C8CCCC8)c7n6)cc5)CC4)c3C2=O)C(=O)N1 (stereo not given)	2.64

----------
Listed below: Emax values for each entry.
- experimental.target: Protein cereblon/Cyclin-dependent kinase 4 (Homo sapiens, UniProt P11802+Q96SW2)
- protocol.notes: PROTAC activity at CDK4/CRBN in human Jurkat cells assessed as maximal protein degradation by Western blot analysis relative to control
- Assay type: cell-based
- Sequence (P11802 2-303 limits assumed): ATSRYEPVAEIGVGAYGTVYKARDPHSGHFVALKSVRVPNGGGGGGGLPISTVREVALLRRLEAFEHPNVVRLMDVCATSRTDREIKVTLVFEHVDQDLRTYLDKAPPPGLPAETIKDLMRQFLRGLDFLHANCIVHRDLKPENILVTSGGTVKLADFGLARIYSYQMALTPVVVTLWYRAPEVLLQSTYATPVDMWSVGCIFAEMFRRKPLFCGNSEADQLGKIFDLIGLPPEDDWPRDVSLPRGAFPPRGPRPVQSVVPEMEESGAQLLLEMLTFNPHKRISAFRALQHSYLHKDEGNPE
- Sequence (Q96SW2 whole entry partner): as the sequence (Q96SW2 whole entry) above

molecule	measurement.unit	Emax
O=C1CCC(N2C(=O)c3cccc(NCCOCCOCCN4CCN(c5ccc(Nc6ncc7ncc(=O)n(C8CCCC8)c7n6)cc5)CC4)c3C2=O)C(=O)N1 (stereo not given)	%	53
O=C(CN1CCN(c2ccc(Nc3ncc4ncc(=O)n(C5CCCC5)c4n3)cc2)CC1)NCCCCNc1cccc2c1C(=O)N(C1CCC(=O)NC1=O)C2=O (stereo not given)	%	14
O=C1CCC(N2C(=O)c3ccc(N4CCN(CC5CCN(C(=O)CN6CCN(c7ccc(Nc8ncc9ncc(=O)n(C%10CCCC%10)c9n8)cc7)CC6)CC5)CC4)cc3C2=O)C(=O)N1 (stereo not given)	%	68
O=C1CCC(N2C(=O)c3cccc(NC(=O)CCCCCCN4CCN(c5ccc(Nc6ncc7ncc(=O)n(C8CCCC8)c7n6)cc5)CC4)c3C2=O)C(=O)N1 (stereo not given)	%	41
O=C(CCCCN1CCN(c2ccc(Nc3ncc4ncc(=O)n(C5CCCC5)c4n3)cc2)CC1)NCCNc1cccc2c1C(=O)N(C1CCC(=O)NC1=O)C2=O (stereo not given)	%	100
O=C1CCC(N2C(=O)c3cccc(NC(=O)CCCCCn4cc(CN5CCN(c6ccc(Nc7ncc8ncc(=O)n(C9CCCC9)c8n7)cc6)CC5)nn4)c3C2=O)C(=O)N1 (stereo not given)	%	42
O=C1CCC(N2C(=O)c3ccc(N4CCN(C(=O)CN5CCN(c6ccc(Nc7ncc8ncc(=O)n(C9CCCC9)c8n7)cc6)CC5)CC4)cc3C2=O)C(=O)N1 (stereo not given)	%	75
O=C1CCC(N2C(=O)c3cccc(NC(=O)CCCCCN4CCN(c5ccc(Nc6ncc7ncc(=O)n(C8CCCC8)c7n6)cc5)CC4)c3C2=O)C(=O)N1 (stereo not given)	%	95
O=C1CCC(N2C(=O)c3cccc(NCCOCCN4CCN(c5ccc(Nc6ncc7ncc(=O)n(C8CCCC8)c7n6)cc5)CC4)c3C2=O)C(=O)N1 (stereo not given)	%	60
O=C1CCC(N2C(=O)c3cccc(NC(=O)CCCCCCC(=O)N4CCN(c5ccc(Nc6ncc7ncc(=O)n(C8CCCC8)c7n6)cc5)CC4)c3C2=O)C(=O)N1 (stereo not given)	%	60

----------
- experimental.target: Protein cereblon/Cyclin-dependent kinase 4 (Homo sapiens, UniProt P11802+Q96SW2)
- protocol.notes: PROTAC activity at CDK4/CRBN in human Jurkat cells assessed as protein degradation by Western blot analysis
- Assay type: cell-based

compound	experimental.target	DC50
O=C1CCC(N2C(=O)c3cccc(NC(=O)CCCCCn4cc(CN5CCN(c6ccc(Nc7ncc8ncc(=O)n(C9CCCC9)c8n7)cc6)CC5)nn4)c3C2=O)C(=O)N1 (stereo not drawn)	Protein cereblon/Cyclin-dependent kinase 4 (Homo sapiens, UniProt P11802+Q96SW2)	> 1000 nM
O=C1CCC(N2C(=O)c3cccc(NC(=O)CCCCCCN4CCN(c5ccc(Nc6ncc7ncc(=O)n(C8CCCC8)c7n6)cc5)CC4)c3C2=O)C(=O)N1 (stereo not drawn)	Protein cereblon/Cyclin-dependent kinase 4 (Homo sapiens, UniProt P11802+Q96SW2)	> 1000 nM
O=C(CN1CCN(c2ccc(Nc3ncc4ncc(=O)n(C5CCCC5)c4n3)cc2)CC1)NCCCCNc1cccc2c1C(=O)N(C1CCC(=O)NC1=O)C2=O (stereo not drawn)	Protein cereblon/Cyclin-dependent kinase 4 (Homo sapiens, UniProt P11802+Q96SW2)	> 1000 nM
